Reported K_(bind) (apparent inhibitor dissociation constant) values are given for each entry in this list.
target-of-assay: T1, E. coli Exonuclease I (E. coli, UniProt P04995 1-475)
T1 sequence (looked up): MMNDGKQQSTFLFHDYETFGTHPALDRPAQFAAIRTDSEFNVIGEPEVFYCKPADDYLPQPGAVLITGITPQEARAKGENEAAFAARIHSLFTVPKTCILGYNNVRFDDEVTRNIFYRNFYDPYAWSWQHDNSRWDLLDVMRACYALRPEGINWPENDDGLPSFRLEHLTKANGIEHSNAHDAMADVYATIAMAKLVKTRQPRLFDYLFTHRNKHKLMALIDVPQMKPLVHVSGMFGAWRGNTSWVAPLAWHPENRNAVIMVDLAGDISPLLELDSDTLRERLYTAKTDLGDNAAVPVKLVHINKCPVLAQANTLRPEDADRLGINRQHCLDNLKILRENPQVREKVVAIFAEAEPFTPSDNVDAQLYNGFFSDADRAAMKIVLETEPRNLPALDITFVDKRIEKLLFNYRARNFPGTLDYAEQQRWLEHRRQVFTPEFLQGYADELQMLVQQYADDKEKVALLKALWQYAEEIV
assay-details: fluorescence polarisation

Some solved entries appear below for comparison.
1. WMDFDDDIP [SSB-Ct C-terminal truncation peptide WMDFDDDIP] : > 200 µM
2. WMDFDDD [SSB-Ct C-terminal truncation peptide WMDFDDD] : > 200 µM

Next:
**Query** Recorded K_(bind) (apparent inhibitor dissociation constant) for WMDFDDDI [SSB-Ct C-terminal truncation peptide WMDFDDDI] , please?
**Result** > 200 µM
